protocol text: viability loss with induced miR-34 in A549 – imaging, A549 dox-inducible miR-34, nuclei and caspase counts, primary screen (AID 1347080); further: test concentration not given here
stated conditions: A549 miR-34 inducible, Hoechst nuclei count, 48 h; measured here: total cells without miR-34 induction
quantity name: cell count

molecule: c1ccc(-c2[nH]ncc2-c2ccnc3ccccc23)nc1
numeric value: 5570
--
molecule: N=S(=O)(O)Cc1noc2ccccc12
numeric value: 9680
--
molecule: CC1OC(O[C@H]2/C=C/C=C/C=C/C=C/C=C/C=C/C=C/[C@H](C)[C@@H](O)[C@@H](C)[C@H](C)OC(=O)CC(O)CC(O)CCC(O)C(O)CC(O)CC3(O)C[C@H](O)C(C(=O)O)C(C2)O3)C(O)[C@H](N)C1O (stereo partly drawn)
numeric value: 11500
--
molecule: COc1cc(C2Oc3cc(C4Oc5cc(O)cc(O)c5C(=O)C4O)ccc3OC2CO)ccc1O (stereo not drawn)
numeric value: 10400
--
molecule: C[C@H](Cc1ccccc1)Nc1ncnc2c1ncn2[C@@H]1O[C@H](CO)[C@H](O)C1O (stereo partly drawn)
numeric value: 9130
--
molecule: CN(CC1COCCO1)S(=O)(=O)Nc1ccc2ccc3ncc(-c4cnn(C)c4)cc3c(=O)c2c1 (stereo not drawn)
numeric value: 4410
--
molecule: C[C@H](NC(=O)c1cnc(-c2ccccc2)[nH]1)c1ccccc1
numeric value: 8420
--
molecule: O=C(Oc1cc(S(=O)(=O)c2ccccc2)ccc1[N+](=O)[O-])c1ccc(Cl)cc1
numeric value: 9520
--
molecule: C=C1C(=O)OC2C=C(C)CCC=C(C)CCC12 (stereo not drawn)
numeric value: 7760
--
molecule: N=C(N)c1ccc(N)cc1
numeric value: 8980
--
molecule: Cc1ncsc1-c1ccn(CC(=O)Nc2ccnn2Cc2cccs2)n1
numeric value: 8190
--
molecule: COc1ccc2c(c1)CCC1C2CC[C@@]2(C)C1CC[C@@H]2NCCCCCCN1C(=O)C=CC1=O (stereo partly drawn)
numeric value: 8930
--
molecule: Cc1cc2c(cc1Cl)N(C(=O)Nc1ccnc3ccccc13)CC2
numeric value: 9390
--
molecule: CCC(=O)O[C@@]1(C(=O)SCF)C(C)C[C@H]2[C@@H]3CC(F)C4=CC(=O)C=C[C@]4(C)[C@]3(F)C(O)C[C@@]21C (stereo partly drawn)
numeric value: 5880
--
molecule: O=C1c2c(O)cccc2[C@H]([C@@H]2OC(CO)C(O)C(O)C2O)c2cc(CO)cc(O)c21 (stereo partly drawn)
numeric value: 9720
--
molecule: CCNC(=O)C1OC(n2cnc3c(N)nc(NCCc4ccc(CCC(=O)O)cc4)nc32)C(O)C1O (stereo not drawn)
numeric value: 7360
--
molecule: O=C(CCCCCCC(=O)Nc1ccc(C2OC(CSc3nc(-c4ccccc4)c(-c4ccccc4)o3)CC(c3ccc(CO)cc3)O2)cc1)NO (stereo not drawn)
numeric value: 6750
--
molecule: CC(=O)OC1C(=O)[C@]2(C)C(O)CC3OC[C@@]3(OC(C)=O)C2C(OC(=O)c2ccccc2)[C@]2(O)CC(OC(=O)C(O)C(NC(=O)c3ccccc3)c3ccccc3)C(C)=C1C2(C)C (stereo partly drawn)
numeric value: 1380

This collection of values is drawn from PubChem BioAssay.
